biological target: L-lactate dehydrogenase A chain (Homo sapiens); test: Inhibition of GS[HiBiT]GS-tagged LDHA (unknown origin) expressed in HEK-293T cells measured after 1 hr by […]; type: cell-based
Parameter measured: pIC50
Interpret pIC50 as the negative base-10 log of the concentration measured in mol/L.

NS(=O)(=O)c1ccc(Cc2c(-c3ccc(F)c(C#CC4CCC4)c3)nn(-c3nc(C(=O)O)cs3)c2CC2CC2)cc1F = 6.88
Cc1ccsc1C#Cc1cccc(-c2nn(-c3nc(C(=O)O)cs3)c(CC3CC3)c2Cc2ccc(S(N)(=O)=O)c(F)c2)c1 = 6.92
C#Cc1cc(-c2nn(-c3nc(C(=O)O)cs3)c(CC3CC3)c2Cc2ccc(S(N)(=O)=O)c(F)c2)ccc1F = 6.60
CCC#Cc1cc(-c2nn(-c3nc(C(=O)O)cs3)c(CC3CC3)c2Cc2ccc(S(N)(=O)=O)c(F)c2)ccc1F = 6.95
NS(=O)(=O)c1ccc(Cc2c(-c3ccc(F)c(C#CC4CCCC4)c3)nn(-c3nc(C(=O)O)cs3)c2CC2CC2)cc1F = 6.95

Here is the next item to consider.
Ask: Quick check: pIC50 on L-lactate dehydrogenase A chain (Homo sapiens), item `NS(=O)(=O)c1ccc(Cc2c(-c3ccc(F)c(-c4ccccc4)c3)nn(-c3nc(C(=O)O)cs3)c2CC2CC2)cc1F` ?
Result: 6.85
